tested on: glycogen synthase kinase-3 (GSK3A per assay name; protocol says GSK3B); test: GSK3 binders on small-molecule microarrays, primary screen, biochemical, small-molecule microarray, 635 nm fluorescence, GSK3A (AID 1103); conditions: small-molecule microarray binding, fluorescence 635 nm; higher = more signal; note: the record names both GSK3A and GSK3B
composite z-score overview

>  <STRUCTURE_SMILES>
COC(=O)CC=C[C@@H](C)[C@@H](C=NO[C@H](C)c1cn([C@H](CO)Cc2ccccc2)nn1)NS(=O)(=O)c1ccc(C)cc1

>  <STUDY_TARGET>
glycogen synthase kinase-3 (GSK3A per assay name; protocol says GSK3B)

>  <composite z-score>
0.0796

$$$$
>  <STRUCTURE_SMILES>
CC(=O)OC[C@H]1O[C@H](C#Cc2ccccc2)C=C[C@@H]1OC(C)=O

>  <STUDY_TARGET>
glycogen synthase kinase-3 (GSK3A per assay name; protocol says GSK3B)

>  <composite z-score>
0.163

$$$$
>  <STRUCTURE_SMILES>
COC(=O)C=CCCc1coc(C=CCNC(=O)OC)n1

>  <STUDY_TARGET>
glycogen synthase kinase-3 (GSK3A per assay name; protocol says GSK3B)

>  <composite z-score>
0.643

$$$$
>  <STRUCTURE_SMILES>
COc1cccc([C@@H]2Oc3ccc(OC)cc3C(=O)[C@H]2O)c1

>  <STUDY_TARGET>
glycogen synthase kinase-3 (GSK3A per assay name; protocol says GSK3B)

>  <composite z-score>
0.184

$$$$
>  <STRUCTURE_SMILES>
C#CCCCON=C1C[C@@H](O)[C@@H](O)[C@@H]2[C@@H]3C(=O)N(C(C)(C)C)C(=O)[C@@H]3CC[C@@H]12

>  <STUDY_TARGET>
glycogen synthase kinase-3 (GSK3A per assay name; protocol says GSK3B)

>  <composite z-score>
-0.545

$$$$
>  <STRUCTURE_SMILES>
COC(=O)CC=C[C@@H](C)[C@@H](C=NOC[C@@H](O)[C@H]1O[C@@H]2OC(C)(C)O[C@@H]2[C@H]1O)NS(=O)(=O)c1ccc(C)cc1

>  <STUDY_TARGET>
glycogen synthase kinase-3 (GSK3A per assay name; protocol says GSK3B)

>  <composite z-score>
0.471

$$$$
>  <STRUCTURE_SMILES>
Cc1cc2c(nc1C)CCCN2CC(O)CN1CCCc2nc(C)c(C)cc21

>  <STUDY_TARGET>
glycogen synthase kinase-3 (GSK3A per assay name; protocol says GSK3B)

>  <composite z-score>
0.388

$$$$
>  <STRUCTURE_SMILES>
Cn1c(=O)n2n(c1=O)[C@H]1[C@H](O)[C@@H]3O[C@@H]3C(=O)[C@H]1CC2

>  <STUDY_TARGET>
glycogen synthase kinase-3 (GSK3A per assay name; protocol says GSK3B)

>  <composite z-score>
0.778

$$$$

----------
molecular target: Focal adhesion kinase 1 (Homo sapiens) (UniProt Q05397); experiment: small-molecule microarray binders of FAK, primary screen, biochemical, 635/667 nm fluorescence, BSA, DTT (AID 1130); settings: PTK2 binding, 635 nm fluorescence, higher = more signal;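 note: composite of spot emission at 667 nm and signal to noise over triplicate slides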
Sequence (Q05397 whole entry, looked up): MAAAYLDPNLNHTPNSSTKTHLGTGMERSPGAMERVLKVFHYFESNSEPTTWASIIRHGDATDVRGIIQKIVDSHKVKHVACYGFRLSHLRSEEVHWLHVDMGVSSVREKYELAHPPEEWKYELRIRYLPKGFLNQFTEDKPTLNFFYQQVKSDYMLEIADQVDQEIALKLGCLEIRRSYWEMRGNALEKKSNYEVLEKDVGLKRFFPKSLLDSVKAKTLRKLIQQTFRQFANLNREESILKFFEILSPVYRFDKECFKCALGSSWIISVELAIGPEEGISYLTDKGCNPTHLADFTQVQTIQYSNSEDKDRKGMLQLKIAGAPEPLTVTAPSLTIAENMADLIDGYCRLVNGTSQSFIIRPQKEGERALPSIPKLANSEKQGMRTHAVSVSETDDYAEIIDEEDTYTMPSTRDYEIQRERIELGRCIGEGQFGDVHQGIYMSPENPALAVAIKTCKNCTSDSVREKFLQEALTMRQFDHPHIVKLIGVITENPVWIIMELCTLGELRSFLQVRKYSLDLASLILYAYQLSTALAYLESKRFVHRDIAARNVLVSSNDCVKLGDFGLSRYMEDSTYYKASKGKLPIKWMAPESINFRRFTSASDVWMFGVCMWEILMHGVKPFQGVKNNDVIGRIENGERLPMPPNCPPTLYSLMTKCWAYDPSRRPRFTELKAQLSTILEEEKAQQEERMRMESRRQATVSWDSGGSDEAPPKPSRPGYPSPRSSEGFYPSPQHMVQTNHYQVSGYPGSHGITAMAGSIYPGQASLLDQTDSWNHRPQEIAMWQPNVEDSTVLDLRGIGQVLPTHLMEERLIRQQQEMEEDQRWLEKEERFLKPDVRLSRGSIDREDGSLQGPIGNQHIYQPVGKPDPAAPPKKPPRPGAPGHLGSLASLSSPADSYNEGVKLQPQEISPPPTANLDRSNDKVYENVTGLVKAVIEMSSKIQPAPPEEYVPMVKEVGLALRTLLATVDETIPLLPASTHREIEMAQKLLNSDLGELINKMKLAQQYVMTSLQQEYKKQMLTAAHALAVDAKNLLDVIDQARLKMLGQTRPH
composite z-score overview

>  <STRUCTURE_SMILES>
CO[C@H]1COC(=O)[C@@H](C)COC(=O)[C@H](COCc2ccccc2)NC(=O)CC=C[C@H]1C

>  <composite z-score>
-0.0555

$$$$
>  <STRUCTURE_SMILES>
C[C@@H](c1ccccc1)N1C(=O)[C@H]2[C@H]3[C@H](O)[C@H](O)CC(=O)[C@H]3CC[C@H]2C1=O

>  <composite z-score>
0.336

$$$$
>  <STRUCTURE_SMILES>
CC[C@@H](c1ccccc1)n1c(=O)n2n(c1=O)[C@H]1[C@H](O)[C@@H]3O[C@@H]3C(=NOC[C@@H](O)COCc3ccco3)[C@H]1CC2

>  <composite z-score>
0.587

$$$$
>  <STRUCTURE_SMILES>
COc1ccc(O[C@@H]2[C@H](O)CO[C@H]2C=Cc2ccccc2)cc1

>  <composite z-score>
0.051

$$$$

----------
target: Luciferin 4-monooxygenase (Photinus pyralis); experiment: firefly luciferase enzyme inhibitors, primary screen, biochemical, luminescence, purified enzyme, 2006 set (AID 1141); conditions: SteadyGlo luminescence, 30 min, higher = more signal, called active from +8 up or from −8 down;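 note: cell-free assay with purified firefly luciferase at 100 ng per well in PBS; test concentration not given here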
RECORDED_ENDPOINT: z-score

>  <COMPOUND>
CC(=O)O[C@H]1C2=CO[C@H](C)[C@H]3[C@H]4C5=C([C@H](O)[C@H]6O[C@H]6C5=O)[C@H](OC4C)[C@@]23C(=O)[C@@H]2O[C@@H]21 (stereo partly specified)

>  <ENDPOINT_VALUE>
-0.413

$$$$
>  <COMPOUND>
CCN1C(=O)[C@H]2[C@H]3[C@H](O)[C@H](O)CC(=NOC[C@H]4O[C@H](c5ccccc5)C=C[C@@H]4Oc4ccc(OC)cc4)[C@@H]3CC[C@H]2C1=O

>  <ENDPOINT_VALUE>
0.468

$$$$
>  <COMPOUND>
CCCNC(=O)OC[C@H]1O[C@H](CCON=C(C)CCN2CCCc3nc(C)c(C)cc32)C=C[C@@H]1Oc1ccc(OC)cc1

>  <ENDPOINT_VALUE>
0.326

$$$$
>  <COMPOUND>
CCOC(=O)[C@H](Cc1ccccc1)NC(=O)OC1CC(CCC2CC(CC)=NO2)OC2(CCCC(COC(=O)NCCC(C)C)O2)C1 (stereo partly specified)

>  <ENDPOINT_VALUE>
0.772

$$$$
>  <COMPOUND>
CO[C@H]1COC(=O)[C@H](C)NC(=O)CC=C[C@@H](C)[C@H](OC)COC(=O)[C@@H](OCc2ccccc2)C=C[C@@H]1C

>  <ENDPOINT_VALUE>
-0.231

$$$$
>  <COMPOUND>
CC(C)CON=C1C[C@@H](O)[C@@H](O)[C@@H]2[C@@H]3C(=O)N(C4CCCCC4)C(=O)[C@@H]3CC[C@H]12

>  <ENDPOINT_VALUE>
-0.266

$$$$
>  <COMPOUND>
CCOC(=O)NN=C1C[C@@H](O)[C@@H](O)[C@@H]2[C@@H]3C(=O)N(C(C)(C)C)C(=O)[C@@H]3CC[C@H]12

>  <ENDPOINT_VALUE>
0.0659

$$$$
>  <COMPOUND>
O=C1CCCC(C2=CCCCC2=O)C1 (stereo unspecified)

>  <ENDPOINT_VALUE>
-0.242

$$$$
>  <COMPOUND>
CO[C@@H]1COC(=O)[C@H](CCSC)NC(=O)CC=C[C@@H](C)COC(=O)[C@H](C)NC(=O)CC=C[C@H]1C

>  <ENDPOINT_VALUE>
-1.2

$$$$
>  <COMPOUND>
COc1cccc([C@H]2Oc3ccc(OC)cc3C(=NOC[C@@H](O)COCc3ccco3)[C@@H]2O)c1

>  <ENDPOINT_VALUE>
-2.4

$$$$
>  <COMPOUND>
COC(=O)CC=C[C@@H](C)[C@@H](C=NOC(C)CN1CCCc2nc(C)c(C)cc21)OC (stereo partly specified)

>  <ENDPOINT_VALUE>
0.423

$$$$

----------
test system: Wnt5a (protein binding on small-molecule microarray); test: Wnt5a binders on small-molecule microarray, primary screen, biophysical, 635/667 nm fluorescence (AID 1142); settings: 635 nm fluorescence, higher = more signal;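 note: fluorescence read at 667 nm with signal to noise per printed feature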

>  <COMPOUND>
COC(=O)CC=C[C@@H](C)[C@@H](C=NO[C@@H]1O[C@H](COC(C)=O)[C@@H](OC(C)=O)[C@H](OC(C)=O)[C@H]1OC(C)=O)OC

>  <composite z-score>
0.359

$$$$
>  <COMPOUND>
CC(C)(C)N1C(=O)[C@H]2[C@H]3[C@H](O)[C@H](O)CC(=O)[C@H]3CC[C@H]2C1=O

>  <composite z-score>
-0.0509

$$$$
>  <COMPOUND>
CC(CCC(=O)OC[C@H]1O[C@H](C#Cc2ccccc2)C=C[C@@H]1Oc1ccc(C)cc1)=NO[C@H](C)c1cn([C@H](CO)Cc2ccccc2)nn1

>  <composite z-score>
-0.313

$$$$
>  <COMPOUND>
CCN1C(=O)[C@H]2[C@H]3[C@H](O)[C@H](O)CC(=NO[C@@H](C)c4cn([C@H](CO)Cc5ccccc5)nn4)[C@@H]3CC[C@H]2C1=O

>  <composite z-score>
0.283

$$$$
>  <COMPOUND>
CO[C@@H]1C=CCC(=O)N[C@@H](C)C(=O)OC[C@@H](OC)[C@H](C)CCCC(=O)OC[C@H]1C

>  <composite z-score>
0.122

$$$$
>  <COMPOUND>
COC(=O)[C@H](C)NC(=O)CCC1CC(OC(=O)NCc2cccc3ccccc23)CC2(CCCC(COC(=O)NCC(c3ccccc3)c3ccccc3)O2)O1 (stereo partly specified)

>  <composite z-score>
0.345

$$$$
>  <COMPOUND>
O=C1OCCC=C1C(O)CCc1ccccc1 (stereo unspecified)

>  <composite z-score>
0.0626

$$$$
>  <COMPOUND>
COc1ccc(O[C@H]2C=C[C@@H](c3ccccc3)O[C@@H]2CON=C(C)C)cc1

>  <composite z-score>
-0.0515

$$$$
>  <COMPOUND>
CO[C@@H]1COC(=O)[C@@H]2CCCN2C(=O)[C@@H](C)COC(=O)CC=C[C@H]1C

>  <composite z-score>
0.667

$$$$
>  <COMPOUND>
O=C(NN=C1C[C@@H](O)[C@@H](O)[C@@H]2[C@@H]3C(=O)N(C[C@@H]4CCCO4)C(=O)[C@@H]3CC[C@H]12)OCc1ccccc1

>  <composite z-score>
-0.222

$$$$
>  <COMPOUND>
CCN1C(=O)[C@H]2[C@H]3[C@H](O)[C@H](O)CC(=NOC[C@H]4O[C@H](c5ccccc5)C=C[C@@H]4Oc4ccc(OC)cc4)[C@@H]3CC[C@H]2C1=O

>  <composite z-score>
0.353

$$$$
>  <COMPOUND>
C#CCCCON=C1C[C@@H](O)[C@@H](O)[C@@H]2[C@@H]3C(=O)N(CCC(=O)OCC)C(=O)[C@@H]3CC[C@H]12

>  <composite z-score>
0.104

$$$$
>  <COMPOUND>
O=C1C[C@@H](O)[C@@H](O)[C@@H]2[C@@H]3C(=O)N(Cc4ccc5c(c4)OCO5)C(=O)[C@@H]3CC[C@H]12

>  <composite z-score>
-0.005

$$$$
>  <COMPOUND>
CCOC(=O)NN=C1C[C@@H](O)[C@@H](O)[C@@H]2[C@@H]3C(=O)N(Cc4ccc5c(c4)OCO5)C(=O)[C@@H]3CC[C@H]12

>  <composite z-score>
-0.193

$$$$
>  <COMPOUND>
C#CCCCON=C1C[C@@H](O)[C@@H](O)[C@@H]2[C@@H]3C(=O)N(c4cccc(Oc5ccccc5)c4)C(=O)[C@@H]3CC[C@H]12

>  <composite z-score>
-0.591

$$$$
>  <COMPOUND>
CO[C@H]1COC(=O)CCC[C@@H](C)[C@H](OC)COC(=O)[C@@H](C)NC(=O)CC=C[C@@H]1C

>  <composite z-score>
-0.183

$$$$
>  <COMPOUND>
CCOC(=O)NN=C1C[C@@H](O)[C@@H](O)[C@@H]2[C@@H]3C(=O)N([C@@H](C)c4ccccc4)C(=O)[C@@H]3CC[C@@H]12

>  <composite z-score>
0.229

$$$$
>  <COMPOUND>
CSCC[C@@H]1NC(=O)CC=C[C@@H](C)COC(=O)[C@@H](C)COC1=O

>  <composite z-score>
-0.0993

$$$$
>  <COMPOUND>
COC(=O)C1=C(C)N(Cc2ccccc2)[C@]23O[C@](C(=O)OC)(C(=O)N2[C@@H]1c1ccccc1)C(C(=O)OC)=C3C(=O)OC

>  <composite z-score>
0.256

$$$$
>  <COMPOUND>
CCOC(=O)[C@H](Cc1ccccc1)NC(=O)OC1CC(CCC2CC(CC)=NO2)OC2(CCCC(COC(=O)NCCC(C)C)O2)C1 (stereo partly specified)

>  <composite z-score>
0.0453

$$$$
>  <COMPOUND>
CC(=O)OC[C@H]1O[C@H](C#Cc2ccccc2)C=C[C@@H]1OC(C)=O

>  <composite z-score>
-0.118

$$$$
